Value source: patent US10517833B2

METHOD_NOTES: pH solubility studies on Milrinone (saturated solubility in different buffers)
Assay type: physicochemical
STATED_CONDITIONS: aqueous buffer, thermodynamic from solid; pH 4.5 Acetate Buffer
READOUT: solubility at 24 h (µg/mL)

smiles_input=Cc1[nH]c(=O)c(C#N)cc1-c1ccncc1 readout_value=1830

----------
METHOD_NOTES: pH solubility studies on Milrinone (saturated solubility in different buffers)
Type: physicochemical
STATED_CONDITIONS: hydrochloric acid buffer, simulated gastric fluid, thermodynamic from solid; pH 1.2 Hydrochloric Acide Buffer
Method: 1. pH 1.2-Hydrochloric Acid Buffer 3. pH 6.8-Phosphate Buffer 4. pH 7.4-Phosphate Buffer. 1. 2 mL buffer solution is placed into a 8 mL USP Type I clear glass vial (with screw cap and PTFE septa) 3. The addition of Milrinone is continued till the formation of saturated solution. 4. The pH of the saturated solution is measured after the addition of Milrinone. 5. […]
READOUT: solubility at 24 h (mg/mL)

smiles_input=Cc1[nH]c(=O)c(C#N)cc1-c1ccncc1 unit_abbreviation=mg/mL readout_value=25.4
